Reference source for all entries: PubChem BioAssay (NCI)

Below, each of the compounds is paired with its reported GI50 value.
- Test system: SK-OV-3 ovarian
- Run Description: NCI tumour cell line growth inhibition, 48 h

See these solved cases before continuing.
compound=COc1cc2c(c(OC)c1OC)-c1ccc(SC)c(=O)cc1[C@@H](O)CC2 result="> 100 µM"
compound=CC(=O)[CH-]C(=O)c1ccccc1.CC(=O)[CH-]C(=O)c1ccccc1.O=S(=O)([O-])c1cc([O-])c2c([O-])cc(S(=O)(=O)[O-])cc2c1.[Na+].[Zr+4] result="> 100 µM"
compound="Cn1cc(-c2cnn3c(N)c(Br)c(C4CCCNC4)nc23)cn1 (stereo not drawn)" result="4.06 µM"
compound=O=C1c2ccccc2-c2c1c1ccccc1c(=O)n2CCCNCCn1c2c(c3ccccc3c1=O)C(=O)c1ccccc1-2 result="19.2 µM"
compound=Oc1c(Cl)cc(Cl)c2ccc(Cn3cc(-c4ccc(C(F)(F)F)cc4)nn3)nc12 result="17.7 µM"
compound=Cc1cc2c(-c3nc4ccccn4c3N)c(O)c(O)cc2c(O)c1-c1c(C)cc2c(-c3nc4ccccn4c3N)c(O)c(O)cc2c1O result="0.805 µM"

QUERY: Record request: GI50 value, item `CC(=O)[C@H]1CCC/C=C/[C@@H]2C[C@H](O)C[C@H]2[C@H](O)/C=C/C(=O)O1`
RESULT: 2.43 µM

QUERY: Fill blank: measured GI50 of the compound `CCN(Cc1cccc(Cl)c1)c1ccc(CO)c(Cl)c1` is ____.
RESULT: 5.62 µM

###

- Test system: SF-295 CNS
- Run Description: NCI tumour cell line growth inhibition, 48 h
Observation Type: TGI (µM)
Please respond with the number in µM and leave the unit unwritten.

Worked cases, TGI given:
compound="C=C1C(=O)O[C@H]2C1C[C@@H](OC(C)=O)/C(C)=C/CC[C@@]1(C)O[C@H]21 (stereo not given in full)" tested_target="SF-295 CNS" observation_type=TGI number=50.9
compound="CCCCCCCCCCCCOC1C(CNC(=O)C2OC3OC(C)(C)OC3C2NC(=O)CN2CCN(c3ccc(OC)cc3)CC2)OC2OC(C)(C)OC21 (stereo not given)" tested_target="SF-295 CNS" observation_type=TGI number=18.4
compound="COC1(OC)C2(Cl)C(Cl)=C(Cl)C1(Cl)C1C2C2CC1(C(=O)O)c1ccccc12 (stereo not given)" tested_target="SF-295 CNS" observation_type=TGI number=56.8

QUERY: Field request: TGI | item: `CCNC(=O)OCc1c(COC(=O)NCC)c(-c2ccc(Cl)c(Cl)c2)n2c1CCC2`
RESULT: 36.7

###

- System: NCI-H23 lung
- Run Description: NCI tumour cell line growth inhibition, 48 h
Observation Type: TGI (µM)
Kindly answer with a numeric value in µM, unit omitted.

Example results:
compound=CCNC(=O)OCc1c(COC(=O)NCC)c(-c2ccc(Cl)c(Cl)c2)n2c1CCC2 observation_type=TGI number=26.3
compound="CC(=O)N1N=C(c2ccc(Nc3nc(Nc4ccc(F)cc4)nc(Nc4ccc(F)cc4)n3)cc2)CC1c1ccc(N(C)C)cc1 (stereo not given)" observation_type=TGI number=26.7

Below: the item to evaluate.
QUERY: For `COc1cccc(Nc2nc3ccccc3c3occc23)c1` , what is its reported TGI?
RESULT: 22.6
